Every entry's value here was drawn from PubChem BioAssay (NCI).

test system: UACC-62 melanoma; test: NCI tumour cell line growth inhibition, 48 h
Property measured: TGI

Lookup: Query TGI for CC(=O)OCC(OC(C)=O)C(OC(C)=O)C(OC(C)=O)C(=O)CNn1c(-c2ccccc2Cl)nc2ccccc2c1=O (stereo not given)
Found: > 100 µM

Lookup: Query TGI for Fc1cc2[nH]ncc2c2c3c(c(-c4cn[nH]c4C(F)(F)F)nc12)C1CCC3C1 (stereo not given)
Found: 3.39 µM

Lookup: Query TGI for "Cc1cc(C)nc(NS(=O)(=O)c2ccc(Nc3c4ccccc4nc4c(C(=O)N5CCN(CCOS(C)(=O)=O)CC5)cccc34)cc2)n1"
Found: > 100 µM

Lookup: Query TGI for O=c1cccc(C2CC(CO)C3CCCCN3C2)[nH]1 (stereo not given)
Found: > 100 µM

Lookup: Query TGI for "CN(C)CCNC(=O)c1cc(Cl)cc2ccc(-c3ccccc3)nc12"
Found: 6.36 µM

Lookup: Query TGI for "COC(=O)c1ccccc1NC(=O)C(=O)NNC(=O)c1ccncc1"
Found: > 100 µM

Lookup: Query TGI for "CS(=O)(=O)CSCSSCS(C)(=O)=O"
Found: 47 µM

Lookup: Query TGI for "O=C1C=CC=C/C1=C1\N=C(c2ccccc2OCC(=O)c2ccccc2)SS1"
Found: > 100 µM

Lookup: Query TGI for "CC(C)C(=O)C(C)(C)CCc1ccccn1"
Found: > 100 µM

Lookup: Query TGI for COc1ccc(/C=C2\CCCC(C(NO)c3ccc(OC)cc3)C2=NO)cc1 (stereo not given)
Found: > 100 µM

----------
test system: CAKI-1 renal; experiment: NCI tumour cell line growth inhibition, 48 h; in the data active = GI50 below about 0.43 µM; inactive = the rest
Pick one: active, inactive

Lookup: Called result for "COc1cc(-c2n/c(=C\c3c(O)[nH]c4ccc(Cl)cc34)cc3c2=Nc2ccccc2-3)ccc1F"
Found: inactive

Lookup: Called result for "CCCCCCCCCCCCCCCCCC1=NCCN1C(=O)OCCO"
Found: inactive

Lookup: Called result for Cn1c2c(c3ccc(Cl)c(Cl)c31)C(C#N)C1(CCNCC1)NC2=O (stereo not given)
Found: active

Lookup: Called result for CN1C(=O)N(C)C2C1NN=c1s/c(=C\c3ccc(F)cc3)c(=O)n12 (stereo not given)
Found: inactive

Lookup: Called result for "COc1ccccc1/C=C/C(=O)c1ccccc1"
Found: inactive

Lookup: Called result for "COc1cc(C(=O)Nc2cc3c(cc2Oc2cc(C)cc(C)c2)C(=O)N(C)[C@@H](CC(=O)N(C)O)C(=O)N3)c(Br)c(OC)c1OC"
Found: inactive

Lookup: Called result for "OCCNc1ncnc2c1ncn2Cc1cccc(COc2cccc(OCc3cccc(Cn4cnc5c(NCCO)ncnc54)c3)c2)c1"
Found: inactive

Lookup: Called result for "CCCOc1ccc2nc(NC(=O)OC)[nH]c2c1"
Found: active

Lookup: Called result for "CCn1c2ccc(O)cc2c2c(C)c3c[n+](C)ccc3c(C)c21"
Found: inactive

Lookup: Called result for "COc1ccc(-c2ccc(-c3ccc(C(=N)N)cn3)o2)cc1"
Found: inactive

----------
test system: SNB-75 CNS; test: NCI tumour cell line growth inhibition, 48 h
Property measured: TGI (µM)
Kindly answer with a numeric value in µM, unit omitted.

Lookup: Query TGI for COc1ccc(N2C(=O)[C@H]3CC(C)c4c([nH]c5ccccc45)[C@H]3C2=O)cc1 (some centres undefined)
Found: 12.5

Lookup: Query TGI for "CCCCOc1ccc(OCCCCCCCCCC[N+](C)(C)C)cc1"
Found: 6.44

Lookup: Query TGI for "COc1ccccc1/C=C/C(=O)c1ccccc1"
Found: 27.1

----------
Exercise: state measured TGI for each of the compounds provided.
test system: 786-0 renal; assay: NCI tumour cell line growth inhibition, 48 h

Lookup: Query TGI for "OCCNc1ncnc2c1ncn2Cc1cccc(COc2cccc(OCc3cccc(Cn4cnc5c(NCCO)ncnc54)c3)c2)c1"
Found: 30.3 µM

Lookup: Query TGI for "CN(C)CCCNC(=O)c1ccc2c(c1)oc1cc3ccccc3c(=O)n12"
Found: > 50 µM

Lookup: Query TGI for "CO[C@H]1SC[C@H](OC(C)=O)[C@H](OC(C)=O)[C@H]1OC(C)=O"
Found: > 100 µM

Lookup: Query TGI for "C=C1OC(c2ccccc2NC)=NC12CCCCC2"
Found: > 100 µM

Lookup: Query TGI for "COc1cc(C(=O)Nc2cc3c(cc2Oc2cc(C)cc(C)c2)C(=O)N(C)[C@@H](CC(=O)N(C)O)C(=O)N3)c(Br)c(OC)c1OC"
Found: 0.0429 µM

Lookup: Query TGI for NC(N)=NCCC1OC(=O)C2=C1c1c(O)ccc3nccc(c13)O2 (stereo not given)
Found: > 100 µM

Lookup: Query TGI for "O=C(c1ccncc1)n1nc(-c2ccccc2)c(N=Nc2ccccc2[N+](=O)[O-])c1-c1ccccc1"
Found: > 100 µM

Lookup: Query TGI for C[C@]12CCCC(=O)C1(O)C[C@H](C(=O)O)CC2 (stereo not given in full)
Found: > 100 µM

Lookup: Query TGI for "Nc1ccccc1C#C/C=C\C#Cc1ccccc1[N+](=O)[O-]"
Found: 43.2 µM

Lookup: Query TGI for C/C=C(/C)C(=O)OC1CC(C)[C@H]2CC(=O)C(C)=C2CC1C(C)(C)OC(C)=O (stereo not given in full)
Found: > 100 µM

----------
system: MALME-3M melanoma; experiment: NCI tumour cell line growth inhibition, 48 h
Label rule, in plain words: TGI of 40 µM and up is t, under 40 µM is f.

Lookup: Given the entry "N.N.N.N.O=C([O-])C(Cl)Cl.O=C([O-])C(Cl)Cl.[Co+3].[O-][Cl+3]([O-])([O-])[O-]" , answer whether its TGI meets or surpasses 40 µM.
Found: t

Lookup: Given the entry "COc1ccc(Cn2cc3c(c2)-c2oncc2CC3)cc1" , answer whether its TGI meets or surpasses 40 µM.
Found: t

Lookup: Given the entry CC1C(=O)OCC2=CCN3CCC(OC(=O)C(C)C1(C)O)C23 (stereo not drawn) , answer whether its TGI meets or surpasses 40 µM.
Found: t

Lookup: Given the entry "Cc1cc(C)nc(NS(=O)(=O)c2ccc(Nc3c4ccccc4nc4c(C(=O)N5CCN(CCOS(C)(=O)=O)CC5)cccc34)cc2)n1" , answer whether its TGI meets or surpasses 40 µM.
Found: t

Lookup: Given the entry "Cc1cc(S(=O)(=O)Nc2n[nH]c(-c3ccccn3)n2)c(S)cc1Cl" , answer whether its TGI meets or surpasses 40 µM.
Found: t

Lookup: Given the entry "O=C1C(c2ccccc2)=[N+]([O-])c2ccccc21" , answer whether its TGI meets or surpasses 40 µM.
Found: f

Lookup: Given the entry "COc1cc(C(=O)Nc2cc3c(cc2Oc2cc(C)cc(C)c2)C(=O)N(C)[C@@H](CC(=O)N(C)O)C(=O)N3)c(Br)c(OC)c1OC" , answer whether its TGI meets or surpasses 40 µM.
Found: f

Lookup: Given the entry "OCCNc1ncnc2c1ncn2Cc1cccc(COc2cccc(OCc3cccc(Cn4cnc5c(NCCO)ncnc54)c3)c2)c1" , answer whether its TGI meets or surpasses 40 µM.
Found: f

Lookup: Given the entry CS(=O)(=O)Nc1ccc2c(c1)N(S(C)(=O)=O)CC2CCl (stereo not drawn) , answer whether its TGI meets or surpasses 40 µM.
Found: t

Lookup: Given the entry COC1OC(CO)C(O)C1N (stereo not drawn) , answer whether its TGI meets or surpasses 40 µM.
Found: t

Lookup: Given the entry "COc1ccc(-c2oc3c(OC)c(OC)c(OC)c(OC)c3c(=O)c2OC)cc1OC" , answer whether its TGI meets or surpasses 40 µM.
Found: t

Lookup: Given the entry "CO[C@H]1SC[C@H](OC(C)=O)[C@H](OC(C)=O)[C@H]1OC(C)=O" , answer whether its TGI meets or surpasses 40 µM.
Found: t

Lookup: Given the entry "NC(=S)NNc1c([N+](=O)[O-])cnn(-c2ccccc2)c1=O" , answer whether its TGI meets or surpasses 40 µM.
Found: f

Lookup: Given the entry "CCn1c2ccc(O)cc2c2c(C)c3c[n+](C)ccc3c(C)c21" , answer whether its TGI meets or surpasses 40 µM.
Found: f

Lookup: Given the entry "Cc1c(CN2CCN(C)CC2)c(CN2CCN(C)CC2)c(C)n1-c1ccc(Cl)cc1" , answer whether its TGI meets or surpasses 40 µM.
Found: f

Lookup: Given the entry OC1(c2ccccc2)OC(C#Cc2ccccc2)(c2ccccc2)c2ccccc21 (stereo not drawn) , answer whether its TGI meets or surpasses 40 µM.
Found: f

Lookup: Given the entry "CSC(SC)=C(C(=O)O)P(=O)(O)O" , answer whether its TGI meets or surpasses 40 µM.
Found: t

Lookup: Given the entry CN(C)CC1CCC/C(=C\c2ccc(OC(=O)c3ccc(Cl)cc3)cc2)C1=O (stereo not drawn) , answer whether its TGI meets or surpasses 40 µM.
Found: f

----------
test system: A498 renal; test: NCI tumour cell line growth inhibition, 48 h; in the data active = GI50 below about 0.43 µM; inactive = the rest
Pick one: 1 for active, -1 for inactive

Lookup: Called result for "COc1ccc2[nH]c(O)c(C(=Nc3ccc(N(C)C(=O)CN4CCN(C)CC4)cc3)c3ccccc3)c2c1"
Found: -1

Lookup: Called result for "COc1ccccc1/C=C/C(=O)c1ccccc1"
Found: -1

Lookup: Called result for CN1C(=O)N(C)C2C1NN=c1s/c(=C\c3ccc(F)cc3)c(=O)n12 (stereo not given)
Found: -1

Lookup: Called result for "O=C(O)c1ccc2c(c1)CCCC(c1ccc(Cl)cc1Cl)=C2c1ccc(O[C@H]2CCN(CCCF)C2)cc1"
Found: -1

Lookup: Called result for "C/C=C1\NC(=O)[C@H]2CSSCCC=C[C@H](CC(=O)N[C@H](C(C)C)C(=O)N2)OC(=O)[C@H](C(C)C)NC1=O"
Found: 1
